Target: T1, VEGF-D (recombinant human; source not given) (human, UniProt O43915 89-205, limits assumed)
T1 construct: also used here as target of IC50 values averaged over Source 1 and Source 2; also called vascular endothelial growth factor-D
T1 sequence: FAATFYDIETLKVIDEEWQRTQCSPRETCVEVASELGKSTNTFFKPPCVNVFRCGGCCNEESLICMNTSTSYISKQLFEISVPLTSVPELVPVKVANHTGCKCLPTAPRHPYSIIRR
Experiment: SPR (BIAcore) off-rate ranking of scFv clones

>  <BINDER>
scFv clone HX28 (scFv) scFv: QVQLVQSGAKVKQPGASVKASCKASGYTFTGYNMYWVRQAPGQGLEWMGYIDPYSGDTTYNQKFKGRVTMTTDTSTSTAYMELRSLRSDDTAVYYCARTSYYGGMDYWGRGTLVTVASGGGASGGGGSGGGGSDIVMTQTPLSSPVTLGQPASISCRSSQSLVHSNGNTYLHWLQQRPGQPPRLLIYKVSNRFSGVPGRFSGSGAGTDFTLKISRVEAEDVGVYYCSQSTHVPRTFGQGTKLEIKR

>  <MEASUREMENT_UNITS>
s⁻¹

>  <koff>
0.00643

$$$$
>  <BINDER>
scFv clone W36 (scFv) scFv: QVQLVQSGAEVKQPGASVKVSCKASGYTFTGYNMYWVRQAPGQGLGWMGYIDPYNGDTTYNQKFKGRVTMTTDTSTSTAYMELRSLRSDDTAVYYCARTSYYGGMDYWGRGTLVTVASGGGASGGGGSGGGGSDIVMTQTPLSSPVTLGQPASISCRSSQSLVHSNGNTYLHWLQQRPGQPPRLLIYKVSNRFSGVPDRFSGSGAGTDFTLKISRVEAEDVGVYYCSQSTHVPRTFGQGTKLEIKR

>  <MEASUREMENT_UNITS>
s⁻¹

>  <koff>
0.00611

$$$$
>  <BINDER>
scFv clone K89 (scFv) scFv: QVQLVQSGAEVKQPGASVKVSCKARGYTFTGYNMYWVRQAPGQGLEWMGYIDPYNGDTTYNQKFKGRVTMTTDTSTSTAYMELRSLRSDDTAVYYCARTSYYGGMDYWGRGTLVTVASGGGASGGGGSGGGGSDIVMTQTPLSSPVTLGQPASISCRSSQSLVHSNGNTYLHWLQQRPGQPPRLLIYKVSNRFSGVPDRFSGSGAGTDFTLKISRVEAEDVGVYYCSQSTHVPRTFGQGTKLEIKR

>  <MEASUREMENT_UNITS>
s⁻¹

>  <koff>
0.00403

$$$$
>  <BINDER>
scFv clone DC56 (scFv) scFv: QVQLVQSGAKVRQPGASVKASCKASGYTFTGYNMYWVRQAPGQGLEWMGYIDPYNGDTTYNQKFKGRVTMTTDTSTSTAYMELRSLRSDDTAVYYCARTSYYGGMDYWGRGTLVTVASGGGASGGGGSGGGGSDIVMTQTPLSSPVTLGQPASISCRSSQSLVHSNGNTYLHWLQQRPGQPPRLLIYKVSNRFSGVPDRFSGSGAGTDFTLKISRVEAEDVGVYYCSQSTHVPRTFGQGTKLEIKR

>  <MEASUREMENT_UNITS>
s⁻¹

>  <koff>
0.00723

$$$$
>  <BINDER>
scFv clone G38 (scFv) scFv: QVQLVQSGAEVKQPGASVKVSCKASGYTFTGYNMYWVRQVPGQGLEWMGYIDPYNGDTTYNQKFKGRVTMTTDTSTSTAYMELRSLRSDDTAVYYCARTSYYGGMDYWGRGTLATVASGGGASGGGGSGGGGSDIVMTQTPLSSPVTLGQPASISCRSSQSLVHSNGNTYLHWLQQRPGQPPRLLIYKVSNRFSGVPDRFSGSGAGTDFTLKISRVEAEDVGVYYCSQSTHVPRTFGQGTKLEIKR

>  <MEASUREMENT_UNITS>
s⁻¹

>  <koff>
0.00772

$$$$
